These entries and their values trace back to paper PMC9260854.

- TARGET OR SYSTEM: SULT2B1b S347D (Homo sapiens, UniProt O00204, S347D)
- PROTOCOL DETAILS: Equilibrium binding via intrinsic fluorescence
- CONDITIONS: Kd Quc, enzyme form E•PAP (PAP 30 μM)
PROPERTY: Kd
Answer as a quantity: numeral, then unit.

Query block: Find the recorded Kd belonging to O=c1c(O)c(-c2ccc(O)c(O)c2)oc2cc(O)cc(O)c12 [quercetin] and report it.
Result block: 350 nM

---

- TARGET OR SYSTEM: SULT2B1b S347D (Homo sapiens, UniProt O00204, S347D)
- PROTOCOL DETAILS: Stopped-flow ligand-binding studies
- CONDITIONS: read-out: Kd PAPS (koff/kon); (−) Quc
PROPERTY: pKd
pKd field: float, defined as -log10 of concentration (mol/L).

Query block: Find the recorded pKd belonging to Nc1ncnc2c1ncn2[C@@H]1O[C@H](COP(=O)(O)OS(=O)(=O)O)[C@@H](OP(=O)(O)O)[C@H]1O [PAPS, 3′-phosphoadenosine 5′-phosphosulfate] and report it.
Result block: 6.42

---

- TARGET OR SYSTEM: SULT2B1b, S347D, W13A (Homo sapiens, UniProt O00204, S347D/W13A)
- Sequence (O00204 1-365 W13A/S347D): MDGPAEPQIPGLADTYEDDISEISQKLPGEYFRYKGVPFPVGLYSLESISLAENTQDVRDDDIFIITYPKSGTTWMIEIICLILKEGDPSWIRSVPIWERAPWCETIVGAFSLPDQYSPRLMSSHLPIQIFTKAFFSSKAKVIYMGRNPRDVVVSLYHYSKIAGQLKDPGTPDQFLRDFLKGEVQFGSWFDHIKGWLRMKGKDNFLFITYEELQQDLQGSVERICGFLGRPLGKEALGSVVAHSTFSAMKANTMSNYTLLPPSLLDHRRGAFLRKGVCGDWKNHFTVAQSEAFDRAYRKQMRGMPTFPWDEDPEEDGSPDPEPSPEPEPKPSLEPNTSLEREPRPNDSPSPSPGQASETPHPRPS
- PROTOCOL DETAILS: Initial-rate parameters, direct-contact mutant W13A
PROPERTY: pKi
pKi field: float, defined as -log10 of concentration (mol/L).

Query block: Find the recorded pKi belonging to O=c1c(O)c(-c2ccc(O)c(O)c2)oc2cc(O)cc(O)c12 and report it.
Result block: 5.12

---

- TARGET OR SYSTEM: SULT2B1b C81S, C225S, C278S, S347D (Homo sapiens, UniProt O00204, C225S/C278S/C81S/S347D)
- PROTOCOL DETAILS: Initial-rate parameters, non DTNB-reactive scaffold
PROPERTY: Ki (nM)
The figure you give is taken to be in nM; do not add the unit.

Query block: Tell me reported Ki for O=c1c(O)c(-c2ccc(O)c(O)c2)oc2cc(O)cc(O)c12 [quercetin] , tested with SULT2B1b C81S, C225S, C278S, S347D (Homo sapiens, UniProt O00204, C225S/C278S/C81S/S347D).
Result block: 300

---

- TARGET OR SYSTEM: SULT2B1b S347D (Homo sapiens, UniProt O00204, S347D)
- PROTOCOL DETAILS: Initial-rate 1-HP sulfonation
- CONDITIONS: read-out: Ki 7-DH
PROPERTY: pKi
pKi field: float, defined as -log10 of concentration (mol/L).

Query block: Find the recorded pKi belonging to CC(C)CCC[C@@H](C)[C@H]1CC[C@H]2C3=CC=C4C[C@@H](O)CC[C@]4(C)[C@H]3CC[C@]12C [7-DH, 7-dehydrocholesterol] and report it.
Result block: 6.96

---

- TARGET OR SYSTEM: SULT2B1b, S347D, W98A (Homo sapiens, UniProt O00204, S347D/W98A)
- Sequence (O00204 1-365 W98A/S347D): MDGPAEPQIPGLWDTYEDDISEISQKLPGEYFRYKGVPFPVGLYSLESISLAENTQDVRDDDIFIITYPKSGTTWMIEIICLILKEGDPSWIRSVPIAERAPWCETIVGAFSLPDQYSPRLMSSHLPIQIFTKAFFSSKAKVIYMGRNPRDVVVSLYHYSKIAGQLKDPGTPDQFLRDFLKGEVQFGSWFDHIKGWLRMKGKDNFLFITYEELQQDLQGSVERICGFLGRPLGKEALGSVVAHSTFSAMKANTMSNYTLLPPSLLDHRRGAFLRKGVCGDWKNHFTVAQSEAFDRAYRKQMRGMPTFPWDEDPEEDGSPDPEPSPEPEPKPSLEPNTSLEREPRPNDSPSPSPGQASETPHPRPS
- PROTOCOL DETAILS: Initial-rate parameters, direct-contact mutant W98A
PROPERTY: pKi
pKi field: float, defined as -log10 of concentration (mol/L).

Query block: Find the recorded pKi belonging to O=c1c(O)c(-c2ccc(O)c(O)c2)oc2cc(O)cc(O)c12 and report it.
Result block: 5.28

---

- TARGET OR SYSTEM: SULT2B1b S347D spin-labeled at residue 171 (Homo sapiens, UniProt O00204, C225S/C278S/C81S/S347D/T171C)
- PROTOCOL DETAILS: Initial-rate parameters, spin-labeled mutant 171
PROPERTY: Ki (nM)
The figure you give is taken to be in nM; do not add the unit.

Query block: Find the recorded Ki belonging to O=c1c(O)c(-c2ccc(O)c(O)c2)oc2cc(O)cc(O)c12 [quercetin] and report it.
Result block: 350

---

- TARGET OR SYSTEM: SULT2B1b S347D (Homo sapiens, UniProt O00204, S347D)
- PROTOCOL DETAILS: Initial-rate 1-HP sulfonation
- CONDITIONS: read-out: Ki 7-DH; PAPS 30 μM, 1-HP 100 μM; noncompetitive partial-inhibition model
PROPERTY: pKi
pKi field: float, defined as -log10 of concentration (mol/L).

Query block: Find the recorded pKi belonging to CC(C)CCC[C@@H](C)[C@H]1CC[C@H]2C3=CC=C4C[C@@H](O)CC[C@]4(C)[C@H]3CC[C@]12C [7-DH, 7-dehydrocholesterol] and report it.
Result block: 6.96

---

- TARGET OR SYSTEM: SULT2B1b S347D (Homo sapiens, UniProt O00204, S347D)
- Sequence (O00204 1-365 S347D): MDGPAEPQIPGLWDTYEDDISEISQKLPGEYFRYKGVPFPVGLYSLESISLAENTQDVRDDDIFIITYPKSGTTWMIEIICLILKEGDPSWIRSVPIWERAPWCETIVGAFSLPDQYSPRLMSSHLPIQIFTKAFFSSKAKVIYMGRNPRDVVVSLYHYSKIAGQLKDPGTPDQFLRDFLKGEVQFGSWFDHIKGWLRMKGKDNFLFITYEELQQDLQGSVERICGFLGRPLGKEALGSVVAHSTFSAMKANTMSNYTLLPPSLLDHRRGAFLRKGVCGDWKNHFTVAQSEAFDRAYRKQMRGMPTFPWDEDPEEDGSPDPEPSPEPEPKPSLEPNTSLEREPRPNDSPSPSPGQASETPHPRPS
- PROTOCOL DETAILS: Equilibrium binding via intrinsic fluorescence
- CONDITIONS: Kd Quc, enzyme form E (no PAP)
PROPERTY: pKd
pKd field: float, defined as -log10 of concentration (mol/L).

Query block: Find the recorded pKd belonging to O=c1c(O)c(-c2ccc(O)c(O)c2)oc2cc(O)cc(O)c12 and report it.
Result block: 5.28

---

- TARGET OR SYSTEM: SULT2B1b S347D (Homo sapiens, UniProt O00204, S347D)
- PROTOCOL DETAILS: Equilibrium binding via intrinsic fluorescence
PROPERTY: Kd (µM)
The figure you give is taken to be in µM; do not add the unit.

Query block: Find the recorded Kd belonging to Nc1ncnc2c1ncn2[C@@H]1O[C@H](COP(=O)(O)O)[C@@H](OP(=O)(O)O)[C@H]1O [PAP, 3′-phosphoadenosine 5′-phosphate] and report it.
Result block: 0.38
